# test_name: T. gondii growth inhibition with IFN-gamma, primary screen, cell-based (AID 1259416);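 further: host cells are HeLa cells infected with Toxoplasma gondii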
# study_conditions: Toxoplasma gondii growth in IFN-gamma-treated host cells; active compounds read low; concentration not given here
About 2,600 (3.8%) of roughly 69,000 compounds were called active. Shown is part of a subset that was picked to be rich in actives.
I'd appreciate it if you could supply activity change, negative = inhibition values for the items below.
Give bare numbers, in %.

compound_string: CN1C[C@@H]2C3(CCN(C(=O)Nc4ccccc4)CC3)CC[C@@]2(C(=O)N2CCCC2)C1
activity change, negative = inhibition / %: 6.69

compound_string: C[C@H](CO)N1C[C@H](C)[C@@H](CN(C)Cc2ccc(C(F)(F)F)cc2)Oc2c(NC(=O)NC3CCCCC3)cccc2C1=O
activity change, negative = inhibition / %: -53.4

compound_string: C[C@@H]1CN([C@H](C)CO)C(=O)c2cccc(NC(=O)NC3CCCCC3)c2O[C@H]1CN(C)Cc1ccc(C(F)(F)F)cc1
activity change, negative = inhibition / %: -74.3

query: Entry under review: "C[C@H]1CN([C@@H](C)CO)C(=O)c2cccc(NC(=O)c3ccc(-c4nccs4)cc3)c2O[C@@H]1CN(C)C(=O)Nc1ccc(C(F)(F)F)cc1" . Reported activity change, negative = inhibition?
result: -80.3

---

# test_name: T. gondii growth inhibition with IFN-gamma, primary screen, cell-based (AID 1259416);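 further: host cells are HeLa cells infected with Toxoplasma gondii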
# study_conditions: Toxoplasma gondii growth in IFN-gamma-treated host cells; concentration not given here
Out of some 69,000 compounds screened, about 2,600 (3.8%) were called active. Rule as the data show it: active = activity change below about -70% (passing the limit was not always enough); inconclusive = no clear call, values can overlap the other calls. The entries come from a sample that favours actives as a whole.
Assign a class; possible classes are Y for active, N for inactive

Please review the following examples before continuing.
compound: O=C(CCc1nc(-c2ccccn2)no1)N1CCC(CCc2ccccc2F)CC1
classification: N
//
compound: C[C@@H]1COCCN1c1cc(C2(S(C)(=O)=O)CC2)nc(-c2cccc3[nH]ccc23)n1
classification: Y
//
compound: O=C1CCc2cc(NC(=O)c3cc(-c4ccccc4)nc4ccccc34)ccc2N1
classification: N
//
compound: COCCn1nnnc1CN(Cc1ccccc1)Cc1cc2ccc(C)c(C)c2[nH]c1=O
classification: Y
//
compound: COc1cccc(-c2cccc3[nH]ccc23)n1
classification: N
//
compound: CCC(NC(=O)CCNC(=O)c1ccccc1F)c1cccs1 (stereo not drawn)
classification: N

query: Per the assay record, what outcome was assigned to O=C(NC1CC1)C1CN(Cc2cnc(NCc3ccccc3)nc2)CCN1 (stereo not drawn) ?
result: N

query: Follow-up item: "Cc1nc([C@@H]2C[C@H]3CCN(Cc4sccc4C)C[C@@H]3O2)no1"
result: N

query: Same lookup for "CC(=O)Nc1ccc(NS(=O)(=O)c2ccc3oc(=O)ccc3c2)cc1" , please.
result: N

query: // same read-out, input: "Cc1ccc(-c2cc(C(=O)Nc3ccc4c(c3)N(S(C)(=O)=O)CCC4)[nH]n2)cc1"
result: Y

query: How about this compound: "O=C1c2ccc(Nc3ccc(F)cc3F)cc2CCc2ccc(OC[C@H](O)CO)cc21"
result: Y

query: How about "CN1C(=O)CCc2cc(C(=O)NC3CCCC3)ccc21" ?
result: N

query: Try this compound next: Cn1ccnc1-c1ccc(N2CCCC(OCc3cccnc3)C2)nn1 (stereo not drawn)
result: N

query: Can you check Cc1ccn(CC(=O)N2CCN3CCNC(=O)C3C2)n1 (stereo not drawn) next?
result: N

query: Repeat for the following compound: "CC(C)c1cc(C2CCN(C(=O)Cc3c[nH]c4ccccc34)CC2)[nH]n1"
result: N

---

Give measured activity change, negative = inhibition for each item. Keep answers brief.
# test_name: T. gondii growth inhibition with IFN-gamma, primary screen, cell-based (AID 1259416);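 further: host cells are HeLa cells infected with Toxoplasma gondii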
# study_conditions: Toxoplasma gondii growth in IFN-gamma-treated host cells; active compounds read low; concentration not given here
The campaign covered roughly 69,000 compounds. About 2,600 (3.8%) were called active. Many of the other results were omitted from the sample, so actives are more common in it than they were.
One number for each entry, in %.

compound: Cc1nc(N)nc(C)c1CC(=O)N1CCC2(CCOCC2)CC1
unit_label: %
activity change, negative = inhibition: -82.2

Give me activity change, negative = inhibition for each of these compounds, listed below.
1. Cc1nc(N2CCCC2)nc2c1CCN(C(=O)Nc1ccccc1F)CC2
2. COc1ccccc1C(=O)NCCc1csc(-c2ccc(Cl)cc2)n1

result:
1: -2.86; 2: -74

Here are 4 compounds. What values of activity change, negative = inhibition were reported for them?
1. COc1cccc(-c2nc(C)c(-c3ccc(SCc4cccc5ccccc45)nn3)s2)c1
2. Cc1ccccc1C(=O)NCCc1csc(-c2ccc(F)cc2)n1
3. O=C(NCCc1csc(-c2ccccc2)n1)c1ccccc1F
4. Cc1nnsc1CNC(=O)CC1CCc2ccccc21 (stereo unspecified)

result:
-1.38
-18
455
-7.08

---

# test_name: T. gondii growth inhibition with IFN-gamma, primary screen, cell-based (AID 1259416);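 further: host cells are HeLa cells infected with Toxoplasma gondii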
# study_conditions: Toxoplasma gondii growth in IFN-gamma-treated host cells; concentration not given here
In all, about 69,000 compounds went through this assay and about 2,600 (3.8%) were called active. Cut-off read from the data, not from the text of the source: active = activity change below about -70% (passing the limit was not always enough); inconclusive = no clear call, values can overlap the other calls. The sample holds actives, similar compounds and a random draw of the others, so the mix is not that of the screen.
Use one of these outcomes when replying: active, inactive

Solved cases below.
compound: Cc1ccc(NC(=O)CC(=O)N2CCCC(c3nc(CC(C)C)no3)C2)cc1 (stereo not given)
classification: inactive

compound: COCCN1CCO[C@@H]2CN(Cc3ccccc3F)C[C@@H]2C1
classification: inactive

compound: Cc1nn(CC(=O)N(C)Cc2ccccc2)c(=O)c2nc(-c3ccccc3)sc12
classification: inactive

compound: Cc1nn(C)c(C)c1CCC(=O)N[C@H]1CCC(=O)NC1c1cccnc1 (stereo not given in full)
classification: inactive

compound: CNC(=O)c1ccccc1Nc1nc(Nc2ccc(N3CCOCC3)cc2OC)ncc1Cl
classification: active

compound: Cc1sccc1C(=O)N1CCC2(CC1)CC(NS(C)(=O)=O)C2
classification: inactive

# input for lookup
query: What was the test verdict on Cc1noc2nc(C3CCCN(C(=O)CCc4ccccc4)C3)cc(C(F)F)c12 (stereo not given) ?
result: active

---

For each entry below, report its activity change, negative = inhibition value.
# test_name: T. gondii growth inhibition with IFN-gamma, primary screen, cell-based (AID 1259416);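 further: host cells are HeLa cells infected with Toxoplasma gondii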
# study_conditions: Toxoplasma gondii growth in IFN-gamma-treated host cells; active compounds read low; concentration not given here
Screen size: about 69,000 compounds; about 2,600 (3.8%) were called active. For the sample, actives were picked, then their nearest neighbours and some compounds at random.
Numbers only, in %.

Some compounds with known activity change, negative = inhibition results, for comparison:
compound: C[C@@H]1CN([C@@H](C)CO)C(=O)c2cc(NS(=O)(=O)c3ccccc3)ccc2O[C@@H](C)CCCCO[C@H]1CN(C)C(=O)C1CCCCC1
unit_label: %
activity change, negative = inhibition: -14.8

compound: COc1cccc(OCC(=O)NCCc2sc(-c3cccc(F)c3)nc2C)c1
unit_label: %
activity change, negative = inhibition: 11.4

compound: COc1ccc(NC(=O)N2CCc3nc(-c4ccccc4)sc3C2)cc1OC
unit_label: %
activity change, negative = inhibition: 32.4

compound: Cc1cc(C(=O)N2CCCC(N(C)C)CC2)sc1C (stereo not drawn)
unit_label: %
activity change, negative = inhibition: 8.26

compound: Cc1cccc(C2c3[nH]c4ccccc4c3CCN2C(=O)c2ccccc2C)c1 (stereo not drawn)
unit_label: %
activity change, negative = inhibition: -84.7

Here are 7 compounds. What values of activity change, negative = inhibition were reported for them?
1. CC(=O)N1C[C@@H]2[C@H](c3ccccc31)[C@H](CO)N2Cc1ccc(Cl)cc1
2. Cc1ccc(S(=O)(=O)Nc2ccc3c(c2)C(=O)N([C@@H](C)CO)C[C@@H](C)[C@H](CN(C)Cc2ccc(C(F)(F)F)cc2)O3)cc1
3. COc1ccc(CN2C(=O)CO[C@H]3CN(C(=O)NC4CC4)C[C@@H]32)cc1
4. CC(C)n1cnc(-c2cc(C(=O)N3CCC(N(C)C)CC3)c3ccccn23)c1
5. C[C@@H]1CN([C@H](C)CO)C(=O)c2cc(NC(=O)Cc3ccccc3)ccc2O[C@@H](C)CCCCO[C@@H]1CN(C)Cc1ccncc1
6. CSc1ccc(C2c3[nH]c4ccccc4c3CCN2C(=O)c2cc3ccccc3[nH]2)cc1 (stereo not drawn)
7. Cc1ccc(C2c3[nH]c4ccccc4c3CCN2C(=O)c2cccc(C)c2)cc1 (stereo not drawn)

result:
1: 2.64; 2: -72.9; 3: 15.8; 4: -48.2; 5: 31.6; 6: -96.3; 7: 226

---

# test_name: T. gondii growth inhibition with IFN-gamma, primary screen, cell-based (AID 1259416);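 further: host cells are HeLa cells infected with Toxoplasma gondii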
# study_conditions: Toxoplasma gondii growth in IFN-gamma-treated host cells; active compounds read low; concentration not given here
Screen size: about 69,000 compounds; about 2,600 (3.8%) were called active. For the sample, actives were picked, then their nearest neighbours and some compounds at random.
Label Yes when activity change, negative = inhibition is strictly below -20%; at or above that, label No.

Example entries begin here.
compound: Cc1ccsc1C(=O)N1CCCC2(C1)Nc1cccnc1NC2=NC1CCCC1 (stereo unspecified)
classification: Yes

compound: COc1ccc(CCCOC(Cn2ccnc2)c2ccc(OC)cc2)cc1 (stereo unspecified)
classification: Yes

compound: COCCN1CC[C@@H]2C[C@@H](C(=O)N3CCCCO3)O[C@@H]2C1
classification: No

compound: CC(C(=O)NCc1ccccc1F)N(c1ccccc1)S(C)(=O)=O (stereo unspecified)
classification: No

compound: O=C(Nc1cnc2n1CCCC2)c1ccccc1-n1cncn1
classification: No

// switching to the query compound
query: Does CC(C)(C)CN1CC2CN(C(=O)Nc3ccccc3)CC21 (stereo unspecified) have activity change, negative = inhibition strictly under -20%?
result: Yes
